These data points were gathered from patent US20230159496A1.

System: SMN2 CJ mRNA
Test: Gene panel canonical junction qPCR assay, SMN2
Type: cell-based
Conditions: decrease in CJ mRNA levels, gene panel; read-out: SMN2 IC50
Counter-ions that a name gives are not always drawn.
reported-endpoint: IC50

Known IC50 results, listed for orientation:
| molecule | experimental-target | assay-value |
| --- | --- | --- |
| CN(c1ccc2c(=O)n(-c3ccc4nn(C)cc4c3)cnc2c1)C1CCNCC1 [Compound 180, hydrochloride] | SMN2 CJ mRNA | > 10 µM |
| Cn1cc2cc(-n3cnc4cc(C5CCNCC5)ccc4c3=O)ccc2n1 | SMN2 CJ mRNA | > 10 µM |
| Cc1cn2cc(-c3ccc4c(=O)n(C5CCNCC5)ncc4c3)cc(C)c2n1 | SMN2 CJ mRNA | < 0.1 µM |
| CC[C@@H]1C[C@H](n2ncc3cc(-c4cc(C)c5nc(C)cn5n4)ccc3c2=O)CCN1 | SMN2 CJ mRNA | < 0.1 µM |
| Cc1cn2nc(-c3ccc4c(c3)CCN(C3CCNCC3)C4=O)cc2c(C)n1 | SMN2 CJ mRNA | 0.1 to 1 µM |

Q) Quickly give me recorded IC50 for Cc1cn2cc(-c3ccc4c(=O)n(C5CCNC6(CC6)C5)cnc4c3)cc(F)c2n1 (centres unmarked)
A) < 0.1 µM

Q) Quickly give me recorded IC50 for `Cn1cc2cc(-n3cnc4cc(NC5CCNCC5)ccc4c3=O)ccc2n1`
A) > 10 µM

Q) Quickly give me recorded IC50 for `CN1CCN(c2ccc3nc(-c4ccc5nn(C)cc5c4)[nH]c(=O)c3c2)CC1`
A) 1 to 10 µM

---

Tested on: HTT mRNA
Experiment: Splicing assay (RT-qPCR) monitoring HTT canonical junction (CJ) and alternative junction (AJ) mRNA isoforms
Type: cell-based
Details: decrease in CJ mRNA (50% response); A673 or K562 cells, 24 h treatment, top dose 10 uM; read-out: HTT CJ AC50
reported-endpoint: AC50

| compound | AC50 |
| --- | --- |
| Cc1cn2cc(-c3ccc4c(=O)n(C5CCN(C)CC5)cnc4c3)ncc2n1 | 1 to 10 µM |
| Cc1cn2nc(-c3ccc4c(c3)CCN(C3CCNCC3)C4=O)cc2c(C)n1 | 1 to 10 µM |
| Cc1cn2cc(-c3ccc4c(=O)n(C5CCNCC5)cnc4c3)c(C)cc2n1 | > 10 µM |
| CC[C@@H]1C[C@@H](n2ncc3cc(-c4cc(C)c5nc(C)cn5n4)ccc3c2=O)CCN1 | 0.1 to 1 µM |
| Cc1cn2cc(-c3ccc4c(c3)CCN(C3CCNCC3)C4=O)cc(C)c2n1 | 1 to 10 µM |
| Cc1cn2nc(-c3ccc4nc(N5CCNC6(CC6)C5)[nH]c(=O)c4c3)cc(C)c2n1 | 0.1 to 1 µM |
| Cc1cn2nc(-c3ccc4c(c3)CCN(C3CCNCC3)C4=O)nc2c(C)n1 | 1 to 10 µM |
| O=C1c2ccc(-c3cn[nH]c3)cc2CCN1C1CCNCC1 | > 10 µM |
| Cc1cn2cc(-c3ccc4c(=O)n(C5CCNCC5)cnc4c3F)cc(F)c2n1 | 1 to 10 µM |
| CN1CCC(c2ccc3c(=O)n(-c4ccc5nn(C)cc5c4)cnc3c2)CC1 | > 10 µM |

Q) Quickly give me recorded AC50 for `CN1CCN(c2ccc3c(=O)n(-c4ccc5nn(C)cc5c4)cnc3c2)CC1`
A) > 10 µM

Q) Quickly give me recorded AC50 for `CN1CCC(n2cnc3cc(-c4cn[nH]c4)ccc3c2=O)CC1`
A) > 10 µM

Q) Quickly give me recorded AC50 for `Cc1cn2nc(-c3ccc4c(=O)n(C5CCN(C)CC5)cnc4c3)nc2c(C)n1`
A) 1 to 10 µM

Q) Quickly give me recorded AC50 for CN1C2C=C(c3ccc4c(=O)n(-c5ccc6nn(C)cc6c5)cnc4c3)CC1CC2 (centres unmarked)
A) > 10 µM

---

System: SMN2 CJ mRNA
Test: Gene panel canonical junction qPCR assay, SMN2
Type: cell-based
Settings: decrease in CJ mRNA levels, gene panel; read-out: SMN2 IC50
Counter-ions that a name gives are not always drawn.
reported-endpoint: IC50

Q) Quickly give me recorded IC50 for CN1C2C=C(c3ccc4c(=O)n(-c5ccc6nn(C)cc6c5)cnc4c3)CC1CC2 (centres unmarked)
A) > 10000 nM

Q) Quickly give me recorded IC50 for Cc1cc(-c2ccc3c(=O)n(C4CC(C)(C)NC(C)(C)C4)cnc3c2)cc2cn(C)nc12 [Compound 157, hydrochloride]
A) 1000 to 10000 nM

Q) Quickly give me recorded IC50 for `Cc1cc(-c2ccc3nc(N4CCNCC4)[nH]c(=O)c3c2)cc2cn(C)nc12`
A) 1000 to 10000 nM

Q) Quickly give me recorded IC50 for `Cc1cc(-c2ccc3c(=O)n(C4CCNCC4)ncc3c2)cc2cn(C)nc12`
A) < 100 nM

Q) Quickly give me recorded IC50 for Cc1cn2nc(-c3ccc4c(c3)CCN(C3CCNC3)C4=O)cc(C)c2n1 (centres unmarked)
A) 1000 to 10000 nM

Q) Quickly give me recorded IC50 for `Cc1cn2cc(-c3ccc4c(=O)n(C5CCNCC5)ccc4c3)cc(F)c2n1`
A) < 100 nM

Q) Quickly give me recorded IC50 for `Cc1cn2cc(-c3ccc4nc(NC5CCNCC5)[nH]c(=O)c4c3)cc(F)c2n1`
A) > 10000 nM

Q) Quickly give me recorded IC50 for `Cc1cc(-c2ccc3nc(NC4CCN(C)CC4)[nH]c(=O)c3c2)cc2cn(C)nc12`
A) > 10000 nM

---

Test system: SMN2 CJ mRNA
Assay: Gene panel canonical junction qPCR assay, SMN2
Format: cell-based
Details: decrease in CJ mRNA levels, gene panel; read-out: SMN2 IC50
pIC50: −log10 of the molar value.
pIC50 overview

Known pIC50 results, listed for orientation:
| compound | assay-value |
| --- | --- |
| Cc1cn2cc(-n3cnc4cc(N5CCNCC5)ccc4c3=O)cc(F)c2n1 | 6.00 to 7.00 |
| Cc1cn2nc(-c3ccc4c(c3)CCN([C@@H]3CCN[C@H](C)C3)C4=O)cc(C)c2n1 | 6.00 to 7.00 |
| Cc1cc(-c2ccc3c(=O)n(C4CC(C)(C)NC(C)(C)C4)cnc3n2)cc2cn(C)nc12 | 5.00 to 6.00 |
| Cc1cn2cc(-c3ccc4c(c3)CCN(C3CCNCC3)C4=O)nc2c(C)n1 | 6.00 to 7.00 |
| Cc1cn2cc(-c3cc(F)c4c(=O)n(C5CCNCC5)cnc4c3)cc(F)c2n1 | > 7.00 |

Q) Provide measured pIC50 on SMN2 CJ mRNA for `Cc1cn2cc(-c3ccc4c(c3)CCN(C3CCNCC3)C4=O)cc(Cl)c2n1` please.
A) > 7.00

Q) Provide measured pIC50 on SMN2 CJ mRNA for `Cc1nc2c(F)cc(-c3ccc4c(=O)n(C5CCNCC5)ncc4c3)cc2s1` please.
A) 6.00 to 7.00

Q) Provide measured pIC50 on SMN2 CJ mRNA for `Cn1cc2cc(-c3ccc4c(=O)n(C5CCNCC5)ncc4c3)cc(F)c2n1` please.
A) 5.00 to 6.00

Q) Provide measured pIC50 on SMN2 CJ mRNA for `Cc1cn2nc(-c3ccc4c(=O)n([C@@H]5CCN[C@H](C)C5)ncc4c3)cc(C)c2n1` please.
A) > 7.00

---

Tested on: SMN2 CJ mRNA
Test: Gene panel canonical junction qPCR assay, SMN2
Format: cell-based
Conditions: decrease in CJ mRNA levels, gene panel; read-out: SMN2 IC50
Method: The expression of a target mRNA was measured by detecting the formation of an exon-exon junction in the canonical transcript (CJ). A compound mediated exon-inclusion event was detected by observing an increase in formation of a new junction with an alternative exon (AJ). […] After treatment, the levels of the HTT mRNA targets were determined from each sample of cell lysate by cDNA synthesis followed by qPCR. […] All samples and standards were analyzed at least in duplicate.
pIC50: −log10 of the molar value.
pIC50 overview

| molecule | experimental-target | pIC50 |
| --- | --- | --- |
| Cc1cc(-c2cc(F)c3c(=O)n(C4CCNCC4)cnc3c2)cc2cn(C)nc12 | SMN2 CJ mRNA | > 7.00 |
| Cc1cn2nc(-c3ccc4c(c3)CCN(C3CCN(C)CC3)C4=O)cc(C)c2n1 | SMN2 CJ mRNA | > 7.00 |
| Cc1cc(-c2ccc3c(=O)n(C4CCNCC4)cnc3c2)cc2cn(C)nc12 | SMN2 CJ mRNA | > 7.00 |
| Cc1cn2cc(-c3ccc4c(=O)n(C5CCNCC5)ncc4c3)c(C)cc2n1 | SMN2 CJ mRNA | 5.00 to 6.00 |
| Cc1cn2nc(-c3ccc4c(=O)n(C5CCNCC5)cnc4c3)nc2c(C)n1 | SMN2 CJ mRNA | > 7.00 |
| CN1CCC(Nc2ccc3c(=O)n(-c4ccc5cn(C)nc5c4)cnc3c2)CC1 | SMN2 CJ mRNA | < 5.00 |

Q) Quickly give me recorded pIC50 for `Cc1cn2nc(-c3cc(F)c4c(=O)n(C5CCNCC5)cnc4c3)cc(C)c2n1`
A) > 7.00

Q) Quickly give me recorded pIC50 for Cc1cn2nc(-c3ccc4c(=O)n(C5CCCNCC5)ncc4c3)cc(C)c2n1 (stereo not drawn)
A) > 7.00

Q) Quickly give me recorded pIC50 for `Cc1cn2nc(-c3ccc4c(=O)n(C5CCN(C)CC5)cnc4c3)nc2c(C)n1`
A) 5.00 to 6.00
